Hey, just so you know, these numbers are from the Bradley open melting point set (2014).

Counter-ions that a name gives are not always drawn.
EXPERIMENTAL ENDPOINT: melting point

COMPOUND: Nc1ccccc1N1CCOCC1
TEST RESULT: 97 °C
//
COMPOUND: CCCCCCCCCCCCCCCCCCCCCCC [Tricosane]
TEST RESULT: 49 °C
//
COMPOUND: C1CCSC1 [Tetrahydrothiophene]
TEST RESULT: -96 °C
//
COMPOUND: C[C@H](CCC(=O)O)[C@H]1CC[C@H]2[C@@H]3[C@@H](O)C[C@@H]4C[C@H](O)CC[C@]4(C)[C@H]3CC[C@]12C
TEST RESULT: 203 °C
//
COMPOUND: OB(O)c1cccc2ccccc12
TEST RESULT: 207 °C
//
COMPOUND: Cc1cccc(O)c1C
TEST RESULT: 72 °C
//
COMPOUND: BrCCCCCCBr
TEST RESULT: -2 °C
//
COMPOUND: Nc1ccccc1NNc1ccccc1 [2-(2-phenylhydrazino)aniline]
TEST RESULT: 107 °C
//
COMPOUND: CCCC(=O)OC(=O)CCC [butyric anhydride]
TEST RESULT: -75 °C
//
COMPOUND: COc1ccc(-c2csc(C(C#N)=Cc3ccco3)n2)cc1
TEST RESULT: 116 °C
//
COMPOUND: C[Si](C)(C)OS(=O)(=O)O[Si](C)(C)C [bis(trimethylsilyl) sulfate]
TEST RESULT: 46 °C
//
COMPOUND: ClCBr
TEST RESULT: -88 °C
//
COMPOUND: Nc1ccc([N+](=O)[O-])cc1 [p-nitroaniline]
TEST RESULT: 150 °C
//
COMPOUND: COc1ccc(CC(=O)O)cc1
TEST RESULT: 87 °C
//
COMPOUND: Cc1c2ccccc2cc2ccccc12
TEST RESULT: 78 °C
//
COMPOUND: C[SiH](C)O[SiH](C)C
TEST RESULT: -78 °C
//
COMPOUND: COc1ccc(/C=C/[N+](=O)[O-])c(OC)c1
TEST RESULT: 100 °C
//
COMPOUND: O=[N+]([O-])c1cccc(N=C=S)c1 [3-nitrophenyl isothiocyanate]
TEST RESULT: 57 °C
//
COMPOUND: BrCBr
TEST RESULT: -52 °C
//
COMPOUND: COc1ccc(C(=O)/C=C/c2ccc(-c3ccccc3OC)o2)cc1OC
TEST RESULT: 145 °C
//
COMPOUND: CCCCCCCCCCBr
TEST RESULT: -29 °C
//
COMPOUND: CCc1ccc(N)cc1
TEST RESULT: -5 °C

* * *

# melting point annotations

COMPOUND: O=S1(=O)CCCO1 [1,2-Oxathiolane 2,2-dioxide]
melting point (°C): 32
--
COMPOUND: CCCCCCCCCCc1ccccc1 [decylbenzene]
melting point (°C): -14
--
COMPOUND: CC(Br)CBr (stereo unspecified) [1,2-dibromopropane]
melting point (°C): -55
--
COMPOUND: CC(Br)C(C)(Br)Br (stereo unspecified) [2,3,3-tribromobutane]
melting point (°C): 2
--
COMPOUND: Oc1ccccc1-c1ccccc1 [Biphenyl-2-ol]
melting point (°C): 57
--
COMPOUND: CNC(=O)N(C)c1nnc(C(F)(F)F)s1 [Thiazafluron]
melting point (°C): 136
--
COMPOUND: ON=Cc1ccc(Cl)cc1 [4-Chlorobenzaldoxime]
melting point (°C): 101
--
COMPOUND: O=C(O)c1cccc2ccccc12 [1-naphthoic acid]
melting point (°C): 161
--
COMPOUND: CCCN1C(=O)CCC(N2C(=O)c3ccccc3C2=O)C1=O (stereo unspecified) [N-Propylthalidomide]
melting point (°C): 136
--
COMPOUND: C/C=C\CCCCC [cis-2-octene]
melting point (°C): -100
--
COMPOUND: C=CCc1ccc(OC)c(OC)c1 [4-Allyl-1,2-dimethoxybenzene]
melting point (°C): -4
